So I've got a bunch of molecules here, and I need their IC50 values.
Target: Isocitrate dehydrogenase [NADP] cytoplasmic (Homo sapiens, UniProt O75874, R132C)
Sequence (O75874 2-414 R132C limits assumed): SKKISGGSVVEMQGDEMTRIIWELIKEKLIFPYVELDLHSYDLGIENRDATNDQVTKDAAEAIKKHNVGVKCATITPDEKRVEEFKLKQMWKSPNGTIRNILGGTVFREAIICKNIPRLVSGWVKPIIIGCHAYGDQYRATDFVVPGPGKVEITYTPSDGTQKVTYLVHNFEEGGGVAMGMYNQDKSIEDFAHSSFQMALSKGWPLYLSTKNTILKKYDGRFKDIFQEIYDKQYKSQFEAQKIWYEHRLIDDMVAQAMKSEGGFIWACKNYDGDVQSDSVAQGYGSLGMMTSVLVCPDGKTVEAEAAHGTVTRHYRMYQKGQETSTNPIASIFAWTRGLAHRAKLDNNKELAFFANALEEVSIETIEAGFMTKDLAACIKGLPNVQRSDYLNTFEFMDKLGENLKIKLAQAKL
Test: Inhibition of recombinant IDH1 R132C mutant (unknown origin) using alpha-ketoglutarate as substrate incubated for 60 mins in presence of NADPH by fluorescence microplate reader
One number for each entry, in nM.

Dear colleague, could you please provide IC50 for the molecules listed below?
1. CC(C)[C@H]1COC(=O)N1c1ccnc(N[C@@H](C)c2ccc(NC(=O)C3CCN(C(=O)/C=C/c4cccnc4)CC3)cc2)n1
2. CC(C)[C@H]1COC(=O)N1c1ccnc(N[C@@H](C)c2ccc(-c3ccc(NC(=O)COc4cccnc4)cc3)cc2)n1
3. C[C@H](Nc1nccc(N2C(=O)OC[C@@H]2[C@H](C)F)n1)c1ccc(-c2ccc(NC(=O)/C=C/c3cccnc3)cc2)cc1
4. C[C@H](Nc1nccc(N2C(=O)OC[C@@H]2[C@H](C)F)n1)c1ccc(-c2ccc(NC(=O)/C=C/c3cccnc3)cc2)cn1
5. C[C@H](Nc1nccc(N2C(=O)OC[C@@H]2[C@@H](C)OC(C)(C)C)n1)c1ccc(-c2ccc(NC(=O)COc3cccnc3)cc2)cc1
6. C[C@H](Nc1nccc(N2C(=O)OC[C@@H]2c2ccccc2)n1)c1ccc(-c2ccc(NC(=O)/C=C/c3cccnc3)cc2)cc1
7. C[C@H](Nc1nccc(N2C(=O)OC[C@@H]2Cc2ccccc2)n1)c1ccc(-c2ccc(NC(=O)c3ccc4nccn4c3)cc2)cc1
8. C[C@H](Nc1nccc(N2C(=O)OC[C@@H]2[C@@H](C)OC(C)(C)C)n1)c1ccc(-c2ccc(NC(=O)/C=C/c3cccnc3)cc2)cc1

**A:**
[308, 114, 59.3, 342, 252, 147, 77.4, 78.7]

Dear colleague, could you please provide IC50 for the molecules listed below?
1. CC(C)[C@H]1COC(=O)N1c1ccnc(N[C@@H](C)c2ccc(-c3ccc(NC(=O)c4cc5ncccc5o4)cc3)cc2)n1
2. C[C@H](Nc1nccc(N2C(=O)OC[C@@H]2Cc2ccccc2)n1)c1ccc(-c2ccc(NC(=O)COc3cccnc3)cc2)cc1
3. CC(C)[C@H]1COC(=O)N1c1ccnc(N[C@@H](C)c2ccc(-c3ccc(NC(=O)c4ccc5nccn5c4)cc3)cc2)n1
4. CC(C)[C@H]1COC(=O)N1c1ccnc(N[C@@H](C)c2ccc(-c3ccc(NC(=O)NCc4cccnc4)cc3)cc2)n1
5. C[C@H](Nc1nccc(N2C(=O)OC[C@@H]2[C@@H](C)O)n1)c1ccc(-c2ccc(NC(=O)c3ccc4nccn4c3)cc2)cc1

**A:**
232
294
73.2
1020
102

----------
Assay: Permeability of compound by PAMPA-BBB assay
Format: ADME
Details: read-out: permeability
PROPERTY_LABEL: Papp

**Q:** // query Papp value for entry C[C@H](Nc1nccc(N2C(=O)OC[C@@H]2[C@H](C)F)n1)c1ccc(-c2ccc(NC(=O)COc3cccnc3)cc2)cc1
**A:** 4.07 ×10⁻⁶ cm/s

----------
Molecular target: Isocitrate dehydrogenase [NADP], mitochondrial (Homo sapiens, UniProt P48735, R172K)
Sequence (P48735 40-452 R172K limits assumed): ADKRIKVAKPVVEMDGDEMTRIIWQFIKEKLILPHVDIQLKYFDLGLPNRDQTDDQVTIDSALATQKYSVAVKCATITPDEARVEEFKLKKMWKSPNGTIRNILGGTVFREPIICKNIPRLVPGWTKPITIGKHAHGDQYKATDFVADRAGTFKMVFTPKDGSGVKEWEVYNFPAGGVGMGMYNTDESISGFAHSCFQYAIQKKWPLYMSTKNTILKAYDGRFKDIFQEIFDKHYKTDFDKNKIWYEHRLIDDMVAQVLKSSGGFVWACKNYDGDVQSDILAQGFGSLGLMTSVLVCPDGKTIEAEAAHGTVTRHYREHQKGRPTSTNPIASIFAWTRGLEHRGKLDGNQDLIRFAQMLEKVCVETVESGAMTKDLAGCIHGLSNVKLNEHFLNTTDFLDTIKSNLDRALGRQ
Test: Inhibition of IDH2 R172K mutant (unknown origin) using alpha-ketoglutarate as substrate incubated in presence of NADPH by Envision multimode plate reader analysis
PROPERTY_LABEL: IC50

**Q:** // query IC50 value for entry C[C@H](Nc1nccc(N2C(=O)OC[C@@H]2[C@H](C)F)n1)c1ccc(-c2ccc(NC(=O)COc3cccnc3)cc2)cc1
**A:** > 100 µM

----------
System: U-87 MG
Assay: Antiproliferative activity against human U-87 MG cells harboring wildtype IDH1 assessed as inhibition of cell growth incubated for 24 hrs by CCK8 assay
Format: functional, cell-based, U-87MG ATCC
PROPERTY_LABEL: pIC50
Numbers only, as −log10 of the molar value.

# example entries with known answers
| MOLECULE | pIC50 |
| --- | --- |
| N#Cc1ccnc(N2C(=O)CC[C@H]2C(=O)N(c2cncc(F)c2)[C@H](C(=O)NC2CC(F)(F)C2)c2ccccc2Cl)c1 [IVOSIDENIB] | 4.00 |
| Cc1cc([C@H](C)Nc2nccc(N3C(=O)OC[C@@H]3[C@H](C)F)n2)ncc1-c1ccnc(C(F)(F)F)c1 | 4.70 |
| C[C@H](Nc1nccc(N2C(=O)OC[C@@H]2[C@H](C)F)n1)c1ccc(-c2ccc(NC(=O)COc3cccnc3)cc2)cc1 | 5.90 |
| O=C(/C=C/c1cccnc1)NCCCCC1CCN(C(=O)c2ccccc2)CC1 [DAPORINAD] | 5.26 |

Now for another entry.
**Q:** // query pIC50 value for entry CC(C)[C@H]1COC(=O)N1c1ccnc(N[C@@H](C)c2ccc(-c3ccc(NC(=O)c4ccc5nccn5c4)cc3)cc2)n1
**A:** 5.58

----------
System: U-87 MG
Type: functional, cell-based, U-87MG ATCC
Settings: Homo sapiens, 48 h
So I've got a bunch of compounds here, and I need their pIC50 values.
Give bare numbers, as −log10 of the molar value.

# example entries with known answers
| COMPOUND | TEST_VALUE |
| --- | --- |
| O=C(/C=C/c1cccnc1)NCCCCC1CCN(C(=O)c2ccccc2)CC1 [DAPORINAD] | 6.01 |
| N#Cc1ccnc(N2C(=O)CC[C@H]2C(=O)N(c2cncc(F)c2)[C@H](C(=O)NC2CC(F)(F)C2)c2ccccc2Cl)c1 [IVOSIDENIB] | 5.99 |

Now for another entry.
**Q:** // query pIC50 value for entry CC(C)[C@H]1COC(=O)N1c1ccnc(N[C@@H](C)c2ccc(-c3ccc(NC(=O)COc4cccnc4)cc3)cc2)n1
**A:** 5.93

----------
Biological target: Isocitrate dehydrogenase [NADP] cytoplasmic (Homo sapiens, UniProt O75874, R132C)
Experiment: Inhibition of recombinant IDH1 R132C mutant (unknown origin) using alpha-ketoglutarate as substrate incubated for 60 mins in presence of NADPH by fluorescence microplate reader
So I've got a bunch of molecules here, and I need their IC50 values.
Reply with a number, then the unit it belongs to.

| MOLECULE | ASSAY_TARGET | TEST_VALUE |
| --- | --- | --- |
| C[C@H](Nc1nccc(N2C(=O)OC[C@@H]2[C@H](C)F)n1)c1ccc(-c2ccc(NC(=O)c3ccc4nccn4c3)cc2)cc1 | Isocitrate dehydrogenase [NADP] cytoplasmic (Homo sapiens, UniProt O75874, R132C) | 231 nM |
| CC(C)[C@H]1COC(=O)N1c1ccnc(N[C@@H](C)c2ccc(NC(=O)CNC(=O)/C=C/c3cccnc3)cc2)n1 | Isocitrate dehydrogenase [NADP] cytoplasmic (Homo sapiens, UniProt O75874, R132C) | 362 nM |
| CC(C)[C@H]1COC(=O)N1c1ccnc(N[C@@H](C)c2ccc(NC(=O)C3CCN(C(=O)/C=C/c4cccnc4)C3)cc2)n1 (stereo not given in full) | Isocitrate dehydrogenase [NADP] cytoplasmic (Homo sapiens, UniProt O75874, R132C) | 430 nM |
| C[C@H](Nc1nccc(N2C(=O)OC[C@@H]2[C@H](C)F)n1)c1ccc(-c2ccc(NC(=O)c3ccc4nccn4c3)cc2)cn1 | Isocitrate dehydrogenase [NADP] cytoplasmic (Homo sapiens, UniProt O75874, R132C) | 369 nM |
| C[C@H](Nc1nccc(N2C(=O)OC[C@@H]2[C@@H](C)O)n1)c1ccc(-c2ccc(NC(=O)COc3cccnc3)cc2)cc1 | Isocitrate dehydrogenase [NADP] cytoplasmic (Homo sapiens, UniProt O75874, R132C) | 138 nM |

Dear colleague, could you please provide IC50 for the molecules listed below?
1. C[C@H](Nc1nccc(N2C(=O)OC[C@@H]2[C@@H](C)OC(C)(C)C)n1)c1ccc(-c2ccc(NC(=O)c3ccc4nccn4c3)cc2)cc1
2. CC(C)[C@H]1COC(=O)N1c1ccnc(N[C@@H](C)c2ccc(-c3ccc(NC(=O)c4cccnc4)cc3)cc2)n1
3. C[C@H](Nc1nccc(N2C(=O)OC[C@@H]2Cc2ccccc2)n1)c1ccc(-c2ccc(NC(=O)/C=C/c3cccnc3)cc2)cc1
4. CC(C)[C@H]1COC(=O)N1c1ccnc(N[C@@H](C)c2ccc(-c3ccc(NC(=O)c4cc5cnccc5[nH]4)cc3)cc2)n1
5. C[C@H](Nc1nccc(N2C(=O)OC[C@@H]2[C@H](C)F)n1)c1ccc(-c2ccc(NC(=O)COc3cccnc3)cc2)cn1

**A:**
57 nM
509 nM
130 nM
171 nM
419 nM
